Measured ΔTm at 10 µM of individual entries
Molecular target: ULK2 kinase domain (1-276) (Homo sapiens)
Assay: biochemical
Conditions: read-out: ULK2 PTS (ºC)

Some entries whose results are on file:
[[record]]
compound = "O=C1CCc2cc(Nc3ncc(C(F)(F)F)c(NCCCNC(=O)C4CC4)n3)ccc2N1 [compound 21]"
test_result = "8 °C"

[[record]]
compound = "O=C1CCc2cc(Nc3ncc(C(F)(F)F)c(NCC(F)(F)F)n3)ccc2N1 [compound 14]"
test_result = "4 °C"

[[record]]
compound = "O=C1CCc2cc(Nc3ncc(Br)c(NC4CC4)n3)ccc2N1 [compound 7]"
test_result = "2 °C"


Attention now shifts to the item below.
Challenge: Param item = O=C1CCc2cc(Nc3ncc(C(F)(F)F)c(NCCO)n3)ccc2N1 [compound 15] ; retrieve measured ΔTm at 10 µM.
Response given: 8 °C

---

Target: NanoLuc-ULK2 (NanoBRET) (Homo sapiens, UniProt Q8IYT8)
Assay: NanoBRET tracer displacement in live HEK293T cells
Assay type: cell-based
In this section we review reported pIC50 values for a set of compounds.
// returns pIC50 (minus log10 of molar concentration), number only

[[record]]
compound = "O=C1CCc2cc(Nc3ncc(C(F)(F)F)c(NCCCNC(=O)C4CC4)n3)ccc2N1 [compound 21]"
test_result = 7.36


Challenge: Field: pIC50 (NanoLuc-ULK2 (NanoBRET) (Homo sapiens, UniProt Q8IYT8)). Entry: O=C1CCc2cc(Nc3ncc(C(F)(F)F)c(NC4CC4)n3)ccc2N1 [compound 2]
Response given: 6.76

Challenge: Moving on to the next compound: COc1cc(Nc2ncc(C(F)(F)F)c(NC3CC3)n2)cc(OC)c1OC [compound 1]
Response given: 6.76

---

log10 IC50 overview
Target: NanoLuc-ULK2 (NanoBRET) (Homo sapiens, UniProt Q8IYT8)
Assay: cell-based
Parameters: species or system HEK293T
Hi team, quick reminder: these entries are log10 of IC50 (nM).

Some entries whose results are on file:
[[record]]
compound_structure_string = "O=C1Cc2cc(Nc3ncc(C(F)(F)F)c(NC4CC4)n3)ccc2N1"
assay_metric = "log10 IC50"
test_result = 3.04

[[record]]
compound_structure_string = "NCCCNc1nc(Nc2ccc3c(c2)CCC(=O)N3)ncc1C(F)(F)F"
assay_metric = "log10 IC50"
test_result = 1.89

[[record]]
compound_structure_string = "COc1cc(Nc2ncc(Br)c(NC3CC3)n2)cc(OC)c1OC"
assay_metric = "log10 IC50"
test_result = 3.17

[[record]]
compound_structure_string = "O=C1CCc2cc(Nc3ncc(C(F)(F)F)c(NCC(F)(F)F)n3)ccc2N1"
assay_metric = "log10 IC50"
test_result = 3.26

[[record]]
compound_structure_string = "O=C1CCc2cc(Nc3ncc(Br)c(NC4CC4)n3)ccc2N1"
assay_metric = "log10 IC50"
test_result = 3.20


Now for a further molecule.
Challenge: Recorded log10 IC50 of O=C1CCc2cc(Nc3ncc(C(F)(F)F)c(NCCO)n3)ccc2N1 , please.
Response given: 2.94

---

Target: ULK1 (recombinant human ULK1 protein 1-649, ADP-Glo) (Homo sapiens, UniProt O75385)
Sequence (O75385 1-649): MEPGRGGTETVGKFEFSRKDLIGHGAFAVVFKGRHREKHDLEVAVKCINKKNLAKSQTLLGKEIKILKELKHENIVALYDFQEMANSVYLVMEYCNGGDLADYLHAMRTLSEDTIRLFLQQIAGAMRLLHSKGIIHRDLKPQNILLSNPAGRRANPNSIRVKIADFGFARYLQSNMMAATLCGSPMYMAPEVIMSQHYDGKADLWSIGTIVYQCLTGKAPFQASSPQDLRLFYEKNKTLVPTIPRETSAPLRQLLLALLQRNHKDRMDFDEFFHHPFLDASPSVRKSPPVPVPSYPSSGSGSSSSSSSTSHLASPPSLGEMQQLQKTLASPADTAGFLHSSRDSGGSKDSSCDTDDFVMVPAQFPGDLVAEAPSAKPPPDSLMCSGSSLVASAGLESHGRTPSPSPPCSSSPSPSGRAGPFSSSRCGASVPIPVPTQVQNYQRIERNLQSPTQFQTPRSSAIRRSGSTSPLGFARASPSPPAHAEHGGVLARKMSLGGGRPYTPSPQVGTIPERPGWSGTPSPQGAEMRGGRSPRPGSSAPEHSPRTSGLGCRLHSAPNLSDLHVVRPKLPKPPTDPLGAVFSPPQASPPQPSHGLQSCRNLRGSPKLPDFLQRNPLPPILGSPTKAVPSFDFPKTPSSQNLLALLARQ
Test: ADP-Glo kinase assay
Assay metric: IC50 (nM)
Express it in nM; write the number only.

[[record]]
compound = "O=C1CCc2cc(Nc3ncc(C(F)(F)F)c(NC4CCCC4)n3)ccc2N1 [compound 12]"
target_under_test = "ULK1 (recombinant human ULK1 protein 1-649, ADP-Glo) (Homo sapiens, UniProt O75385)"
test_result = 25


# next compound below
Challenge: Requested field: IC50. Item: O=C1CCc2cc(Nc3nccc(NC4CC4)n3)ccc2N1 [compound 8, 8]
Response given: 2330

---

Target: ULK2 (recombinant human ULK2 protein 1-478, ADP-Glo) (Homo sapiens, UniProt Q8IYT8)
Sequence (Q8IYT8 1-478): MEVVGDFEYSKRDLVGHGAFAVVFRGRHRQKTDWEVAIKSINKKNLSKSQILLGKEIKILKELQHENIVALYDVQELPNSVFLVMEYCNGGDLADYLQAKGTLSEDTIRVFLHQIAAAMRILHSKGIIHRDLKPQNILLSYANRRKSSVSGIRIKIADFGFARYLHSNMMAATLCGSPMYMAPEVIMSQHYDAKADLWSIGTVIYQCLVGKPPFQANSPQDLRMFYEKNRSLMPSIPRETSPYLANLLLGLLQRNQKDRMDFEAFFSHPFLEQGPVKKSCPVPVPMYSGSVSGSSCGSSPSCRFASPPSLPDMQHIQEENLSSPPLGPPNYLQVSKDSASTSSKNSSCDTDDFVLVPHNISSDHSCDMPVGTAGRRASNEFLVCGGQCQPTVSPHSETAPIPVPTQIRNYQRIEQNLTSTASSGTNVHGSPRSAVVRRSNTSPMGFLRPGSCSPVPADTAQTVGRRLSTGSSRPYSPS
Assay: biochemical
Assay metric: pIC50
Worth noting: pIC50 values are minus log10 of concentrations stated in mol/L.

Before answering, review these 5 worked examples.
[[record]]
molecule = "O=C1Cc2cc(Nc3ncc(C(F)(F)F)c(NC4CC4)n3)ccc2N1 [compound 3]"
test_result = 6.15

[[record]]
molecule = "NCCCNc1nc(Nc2ccc3c(c2)CCC(=O)N3)ncc1C(F)(F)F [compound 19]"
test_result = 6.32

[[record]]
molecule = "O=C1CCc2cc(Nc3ncc(Br)c(NC4CC4)n3)ccc2N1 [compound 7]"
test_result = 6.05

[[record]]
molecule = "COc1cc(Nc2ncc(Br)c(NC3CC3)n2)cc(OC)c1OC [compound 6]"
test_result = 6.66

[[record]]
molecule = "O=C1CCc2cc(Nc3ncc(C(F)(F)F)c(NCCO)n3)ccc2N1 [compound 15]"
test_result = 6.01


Attention now turns to another entry.
Challenge: Reported pIC50 for O=C1CCc2cc(Nc3ncc(C(F)(F)F)c(NCC(F)(F)F)n3)ccc2N1 [compound 14] : what is it?
Response given: 6.33

---

ΔTm at 10 µM reference
Molecular target: ULK2 kinase domain (1-276) (Homo sapiens)
Experiment: biochemical
Conditions: read-out: ULK2 PTS (ºC)
Answer by giving the amount and then stating its unit.

[[record]]
compound_structure_string = "COc1cc(Nc2ncc(Br)c(NC3CC3)n2)cc(OC)c1OC"
assay_metric = "ΔTm at 10 µM"
test_result = "7 °C"

[[record]]
compound_structure_string = "O=C1Cc2cc(Nc3ncc(C(F)(F)F)c(NC4CC4)n3)ccc2N1"
assay_metric = "ΔTm at 10 µM"
test_result = "3 °C"


We now examine a further compound.
Challenge: // map NCCCNc1nc(Nc2ccc3c(c2)CCC(=O)N3)ncc1C(F)(F)F to recorded ΔTm at 10 µM (system: ULK2 kinase domain (1-276) (Homo sapiens))
Response given: 7.5 °C
